# Test system: NCI-H196 complex spheroid growth, percent test/control
# MEASUREMENT_DESCRIPTION: Anticancer human tumor NCI-H196 cell line growth inhibition [AhR];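 note: seven days of drug exposure starting three days after plating; 100% = DMSO vehicle control wells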
# PARTICULARS: second compound 0.316 µM; first compound 1 µM; active compounds read low

MOLECULE	TARGET	viability, T/C [%]
Nc1ncn(C2CC(O)C(CO)O2)c(=O)n1 (stereo not given) + CC(CO)NC(=O)c1cc(-c2ccc(Cl)cc2)nn(-c2cnn(C)c2)c1=O	NCI-H196 complex spheroid growth, percent test/control	120
O=C(c1cc(Cc2n[nH]c(=O)c3ccccc23)ccc1F)N1CCN(C(=O)C2CC2)CC1 + CC(CO)NC(=O)c1cc(-c2ccc(Cl)cc2)nn(-c2cnn(C)c2)c1=O	NCI-H196 complex spheroid growth, percent test/control	102
Nc1ncn(C2CC(O)C(CO)O2)c(=O)n1 (stereo not given) + Cc1cncc(-c2nc(NCCc3c[nH]c4ccccc34)c3ncn(C(C)C)c3n2)c1	NCI-H196 complex spheroid growth, percent test/control	105
Nc1ccn(C2OC(CO)C(O)C2(F)F)c(=O)n1 (stereo not given) + Cc1ccccc1N=Nc1ccc(NC(=O)c2ccnn2C)c(C)c1	NCI-H196 complex spheroid growth, percent test/control	54
Nc1ccccc1NC(=O)c1ccc(CNC(=O)OCc2cccnc2)cc1 + Cc1cncc(-c2nc(NCCc3c[nH]c4ccccc34)c3ncn(C(C)C)c3n2)c1	NCI-H196 complex spheroid growth, percent test/control	42
CC(C)c1c(-c2ccccc2)nc2c(C#N)c[nH]n2c1=O + CC(CO)NC(=O)c1cc(-c2ccc(Cl)cc2)nn(-c2cnn(C)c2)c1=O	NCI-H196 complex spheroid growth, percent test/control	112
O=C(C=Cc1cccc(S(=O)(=O)Nc2ccccc2)c1)NO + Cc1ccccc1N=Nc1ccc(NC(=O)c2ccnn2C)c(C)c1	NCI-H196 complex spheroid growth, percent test/control	69.9
CC1COCCN1c1cc(C2(S(C)(=N)=O)CC2)nc(-c2ccnc3[nH]ccc23)n1 (stereo not given) + Cc1ccccc1N=Nc1ccc(NC(=O)c2ccnn2C)c(C)c1	NCI-H196 complex spheroid growth, percent test/control	92.5
COc1cccc2c1C(=O)c1c(O)c3c(c(O)c1C2=O)CC(O)(C(=O)CO)CC3OC1CC(N)C(O)C(C)O1 (stereo not given) + Cc1cncc(-c2nc(NCCc3c[nH]c4ccccc34)c3ncn(C(C)C)c3n2)c1	NCI-H196 complex spheroid growth, percent test/control	15.7
CC(C)c1c(-c2ccccc2)nc2c(C#N)c[nH]n2c1=O + Cc1cncc(-c2nc(NCCc3c[nH]c4ccccc34)c3ncn(C(C)C)c3n2)c1	NCI-H196 complex spheroid growth, percent test/control	109
CC1COCCN1c1cc(-c2ccnn2C)c2ccnc(-c3ccn[nH]3)c2n1 (stereo not given) + CC(CO)NC(=O)c1cc(-c2ccc(Cl)cc2)nn(-c2cnn(C)c2)c1=O	NCI-H196 complex spheroid growth, percent test/control	68.5
O=C(C=Cc1cccc(S(=O)(=O)Nc2ccccc2)c1)NO + CC(CO)NC(=O)c1cc(-c2ccc(Cl)cc2)nn(-c2cnn(C)c2)c1=O	NCI-H196 complex spheroid growth, percent test/control	71.2
NS(=O)(=O)OCC1CC(n2ccc3c(NC4CCc5ccccc54)ncnc32)CC1O (stereo not given) + CC(CO)NC(=O)c1cc(-c2ccc(Cl)cc2)nn(-c2cnn(C)c2)c1=O	NCI-H196 complex spheroid growth, percent test/control	59.2
O=C(C=Cc1cccc(S(=O)(=O)Nc2ccccc2)c1)NO + Cc1cncc(-c2nc(NCCc3c[nH]c4ccccc34)c3ncn(C(C)C)c3n2)c1	NCI-H196 complex spheroid growth, percent test/control	64.1
COc1cc(Nc2ncc3c(n2)-c2ccc(Cl)cc2C(c2c(F)cccc2OC)=NC3)ccc1C(=O)O + Cc1cncc(-c2nc(NCCc3c[nH]c4ccccc34)c3ncn(C(C)C)c3n2)c1	NCI-H196 complex spheroid growth, percent test/control	111
CC1COCCN1c1cc(-c2ccnn2C)c2ccnc(-c3ccn[nH]3)c2n1 (stereo not given) + Cc1cncc(-c2nc(NCCc3c[nH]c4ccccc34)c3ncn(C(C)C)c3n2)c1	NCI-H196 complex spheroid growth, percent test/control	52.7
COc1cc(C2c3cc4c(cc3C(OC3OC5COC(C)OC5C(O)C3O)C3COC(=O)C23)OCO4)cc(OC)c1O (stereo not given) + CC(CO)NC(=O)c1cc(-c2ccc(Cl)cc2)nn(-c2cnn(C)c2)c1=O	NCI-H196 complex spheroid growth, percent test/control	104
Nc1ccn(C2OC(CO)C(O)C2(F)F)c(=O)n1 (stereo not given) + Cc1cncc(-c2nc(NCCc3c[nH]c4ccccc34)c3ncn(C(C)C)c3n2)c1	NCI-H196 complex spheroid growth, percent test/control	47.3
CC1COCCN1c1cc(-c2ccnn2C)c2ccnc(-c3ccn[nH]3)c2n1 (stereo not given) + Cc1ccccc1N=Nc1ccc(NC(=O)c2ccnn2C)c(C)c1	NCI-H196 complex spheroid growth, percent test/control	52.7
COc1ccc([C@@H](O)c2cc(-c3ncnc4cc(N5CCOCC5)ccc34)c(F)cc2Cl)nn1 + CC(CO)NC(=O)c1cc(-c2ccc(Cl)cc2)nn(-c2cnn(C)c2)c1=O	NCI-H196 complex spheroid growth, percent test/control	83.3
COc1cc(Nc2ncc3c(n2)-c2ccc(Cl)cc2C(c2c(F)cccc2OC)=NC3)ccc1C(=O)O + CC(CO)NC(=O)c1cc(-c2ccc(Cl)cc2)nn(-c2cnn(C)c2)c1=O	NCI-H196 complex spheroid growth, percent test/control	113
Nc1ccn(C2OC(CO)C(O)C2(F)F)c(=O)n1 (stereo not given) + CC(CO)NC(=O)c1cc(-c2ccc(Cl)cc2)nn(-c2cnn(C)c2)c1=O	NCI-H196 complex spheroid growth, percent test/control	65.1
Nc1ccccc1NC(=O)c1ccc(CNC(=O)OCc2cccnc2)cc1 + CC(CO)NC(=O)c1cc(-c2ccc(Cl)cc2)nn(-c2cnn(C)c2)c1=O	NCI-H196 complex spheroid growth, percent test/control	33.7
COc1cccc2c1C(=O)c1c(O)c3c(c(O)c1C2=O)CC(O)(C(=O)CO)CC3OC1CC(N)C(O)C(C)O1 (stereo not given) + CC(CO)NC(=O)c1cc(-c2ccc(Cl)cc2)nn(-c2cnn(C)c2)c1=O	NCI-H196 complex spheroid growth, percent test/control	53.8
COc1cc(C2c3cc4c(cc3C(OC3OC5COC(C)OC5C(O)C3O)C3COC(=O)C23)OCO4)cc(OC)c1O (stereo not given) + Cc1ccccc1N=Nc1ccc(NC(=O)c2ccnn2C)c(C)c1	NCI-H196 complex spheroid growth, percent test/control	89.8

---

# Test system: NCI-H196 complex spheroid growth, percent test/control
# MEASUREMENT_DESCRIPTION: Anticancer human tumor NCI-H196 cell line growth inhibition [AhR];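 note: seven days of drug exposure starting three days after plating; 100% = DMSO vehicle control wells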
# PARTICULARS: second compound 3.16 µM; first compound 0.316 µM; active compounds read low
# Description: Multicellular complex tumor spheroid response to aryl hydrocarbon receptor antagonists in combination with a variety of drugs and investigational agents in selected tumor cell lines […] Compounds. […] If the clinical Cmax for an agent had not been determined, the highest concentration tested was 10 microM (Table 1). […]
Measured viability, T/C by item
RECORDED_ENDPOINT: viability, T/C (%)

COMPOUND	TARGET	MEASURED_VALUE
Nc1ccccc1NC(=O)c1ccc(CNC(=O)OCc2cccnc2)cc1 + Cc1cncc(-c2nc(NCCc3c[nH]c4ccccc34)c3ncn(C(C)C)c3n2)c1	NCI-H196 complex spheroid growth, percent test/control	69.8
Nc1ccn(C2OC(CO)C(O)C2(F)F)c(=O)n1 (stereo unspecified) + CC(CO)NC(=O)c1cc(-c2ccc(Cl)cc2)nn(-c2cnn(C)c2)c1=O	NCI-H196 complex spheroid growth, percent test/control	69.9
COc1cc(Nc2ncc3c(n2)-c2ccc(Cl)cc2C(c2c(F)cccc2OC)=NC3)ccc1C(=O)O + Cc1cncc(-c2nc(NCCc3c[nH]c4ccccc34)c3ncn(C(C)C)c3n2)c1	NCI-H196 complex spheroid growth, percent test/control	127
COc1ccc([C@@H](O)c2cc(-c3ncnc4cc(N5CCOCC5)ccc34)c(F)cc2Cl)nn1 + Cc1cncc(-c2nc(NCCc3c[nH]c4ccccc34)c3ncn(C(C)C)c3n2)c1	NCI-H196 complex spheroid growth, percent test/control	106
COc1ccc([C@@H](O)c2cc(-c3ncnc4cc(N5CCOCC5)ccc34)c(F)cc2Cl)nn1 + CC(CO)NC(=O)c1cc(-c2ccc(Cl)cc2)nn(-c2cnn(C)c2)c1=O	NCI-H196 complex spheroid growth, percent test/control	114
NS(=O)(=O)OCC1CC(n2ccc3c(NC4CCc5ccccc54)ncnc32)CC1O (stereo unspecified) + CC(CO)NC(=O)c1cc(-c2ccc(Cl)cc2)nn(-c2cnn(C)c2)c1=O	NCI-H196 complex spheroid growth, percent test/control	71.1

---

Below, each of the compounds is paired with its reported viability, T/C value.
# Test system: NCI-H196 complex spheroid growth, percent test/control
# MEASUREMENT_DESCRIPTION: Anticancer human tumor NCI-H196 cell line growth inhibition [AhR];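 note: seven days of drug exposure starting three days after plating; 100% = DMSO vehicle control wells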
# PARTICULARS: second compound 10 µM; first compound 3 µM; active compounds read low
RECORDED_ENDPOINT: viability, T/C (%)

COMPOUND	TARGET	RECORDED_ENDPOINT	UNITS	MEASURED_VALUE
CCN(c1cc(-c2ccc(CN3CCOCC3)cc2)cc(C(=O)NCc2c(C)cc(C)[nH]c2=O)c1C)C1CCOCC1 + Cc1cncc(-c2nc(NCCc3c[nH]c4ccccc34)c3ncn(C(C)C)c3n2)c1	NCI-H196 complex spheroid growth, percent test/control	viability, T/C	%	90.1
O=C(C=Cn1cnc(-c2cc(C(F)(F)F)cc(C(F)(F)F)c2)n1)NNc1cnccn1 + Cc1cncc(-c2nc(NCCc3c[nH]c4ccccc34)c3ncn(C(C)C)c3n2)c1	NCI-H196 complex spheroid growth, percent test/control	viability, T/C	%	5.29
CCN(c1cc(-c2ccc(CN3CCOCC3)cc2)cc(C(=O)NCc2c(C)cc(C)[nH]c2=O)c1C)C1CCOCC1 + CC(CO)NC(=O)c1cc(-c2ccc(Cl)cc2)nn(-c2cnn(C)c2)c1=O	NCI-H196 complex spheroid growth, percent test/control	viability, T/C	%	124
